Give kon for every item shown.
molecular target: T1, human PDGFRb.hFc (human); assay: SPR, mAb captured, 25 C
T1 construct: Soluble dimeric construct with human Fc; also called hPDGFRb.hFc
Give bare numbers, in M⁻¹ s⁻¹.

Known results for binders:
# Binder, Unit spec, Experimental value
rows = [
    ("H4H3105S (antibody, human IgG4, V domains shown, human IgG4 Fc (H4H prefix)) VH: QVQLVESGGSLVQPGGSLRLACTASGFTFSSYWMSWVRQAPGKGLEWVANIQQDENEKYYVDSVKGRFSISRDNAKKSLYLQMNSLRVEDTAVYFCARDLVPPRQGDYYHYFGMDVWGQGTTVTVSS VL: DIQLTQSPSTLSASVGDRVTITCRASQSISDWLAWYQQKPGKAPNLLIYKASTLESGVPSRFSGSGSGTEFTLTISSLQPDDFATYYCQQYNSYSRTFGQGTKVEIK", "M⁻¹ s⁻¹", 247000),
    ("H4H3096S (antibody, human IgG4, V domains shown, human IgG4 Fc (H4H prefix)) VH: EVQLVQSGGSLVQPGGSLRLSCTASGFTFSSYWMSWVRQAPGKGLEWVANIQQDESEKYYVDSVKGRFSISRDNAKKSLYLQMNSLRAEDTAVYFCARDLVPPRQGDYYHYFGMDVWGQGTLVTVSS VL: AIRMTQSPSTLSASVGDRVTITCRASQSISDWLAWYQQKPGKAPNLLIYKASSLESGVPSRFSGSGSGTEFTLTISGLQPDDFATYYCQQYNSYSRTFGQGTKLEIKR", "M⁻¹ s⁻¹", 222000),
    ("H4H3106S (antibody, human IgG4, V domains shown, human IgG4 Fc (H4H prefix)) VH: QVQLVESGGGLVQPGGSLRLSCAASGFTFSSYWMSWVRQVPGKGLEWVANMNQDGTEKYYVDSVKGRLTISRENVKNSLYLQMNGLRAEDTAVYYCARDLVPPRQGDYYYYFGMDVWGHGTMVTVSS VL: AIQMTQSPSTLSASVGDIVTITCRASQSISDWLAWYQQKPGKAPKLLIFKASSLESGVPSRFSGSGSGTDFTLTISSLQPDDFATYYCQQYNSYSRTFGQGTKVDIK", "M⁻¹ s⁻¹", 314000),
]

[Q] Returns the measured kon for the input binder. Input: H4H3094P (antibody, human IgG4, V domains shown, also called H4H3394P) VH: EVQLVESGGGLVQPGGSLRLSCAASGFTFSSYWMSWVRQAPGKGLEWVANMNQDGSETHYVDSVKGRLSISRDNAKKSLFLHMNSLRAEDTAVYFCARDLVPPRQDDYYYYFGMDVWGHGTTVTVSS VL: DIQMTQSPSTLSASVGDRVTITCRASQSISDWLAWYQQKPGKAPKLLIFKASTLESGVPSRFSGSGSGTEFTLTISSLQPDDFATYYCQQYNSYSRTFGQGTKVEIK
[A] 242000
